System: Human umbilical vein endothelial cells (HUVEC)
method-summary: Trypan blue viability count in HUVEC
Assay type: cell-based
cond: HUVEC, 10 μM, 48 h, relative to vehicle
Procedure: Additional compounds have also been tested for their ability to inhibit both TNF-α-induced NF-κB—expression and PMA-induced AP-1 expression. In both tests, the compound was added for 1 h, then the appropriate inducer was added, and luciferase activity was monitored 24 h later. […] Following treatment, the media from the VSMC and HUVEC incubations were removed, and the amount of lactate dehydrogenase (LDH) released into the medium was determined with a commercial kit. […]
observation-type: Viable Cells % Decrease HUVEC (%)
Note: unit % is implicit; provide only the numeric part.

{"compound": "COc1ccccc1-n1c(-c2cc(-c3ccncc3)c(N3CCOCC3)s2)nc2ccccc2c1=O [PMCR206]", "reported-result": 12}

// below: Viable Cells % Decrease HUVEC requested for another compound
## Task What Viable Cells % Decrease HUVEC value was documented for this compound, Cc1nc(Nc2ccc(Cl)cc2)sc1-c1nc2ccccc2c(=O)n1-c1ccccc1Cl [PMCR120] ?
## Result 16

// provenance: patent US8829014B2
